Reference source: ChEMBL document CHEMBL4138112

# Test system: Calf thymus DNA
# METHOD_NOTES: Binding affinity to calf thymus DNA assessed as change in absorption maximum at 10 to 80 uM by UV-Visible absorption spectroscopy (reference value: 425 to 500 nanometer)
# Format: nucleic-acid assay
# CONDITION_SET: Bos taurus

SMILES_STRUCTURE	Activity / nm
O=C1NC(=O)/C(=C/c2c[nH]c3ccc(Br)cc23)S1	457
O=C1NC(=S)N/C1=C\c1c[nH]c2ccccc12	423
O=C1NC(=O)/C(=C/c2c[nH]c3ccccc23)S1	378

====

Let's look at some compounds and their measured Activity.
# System: Calf thymus DNA
# METHOD_NOTES: Binding affinity to calf thymus DNA assessed as hyperchromicity at 10 to 80 uM by UV-Visible absorption spectroscopy relative to control
# Assay type: nucleic-acid assay
# CONDITION_SET: Bos taurus

SMILES_STRUCTURE	UNIT_SPEC	Activity
NN1C(=O)/C(=C/c2c[nH]c3ccccc23)SC1=S	%	6
NN1C(=O)/C(=C/c2c[nH]c3ccc(Br)cc23)SC1=S	%	23
O=C1NC(=S)S/C1=C\c1c[nH]c2ccccc12	%	75
O=C1NC(=S)S/C1=C\c1c[nH]c2ccc(Br)cc12	%	8
